Target: human Nectin-4 (protein used in the SPR affinity measurements) (human) (UniProt Q96NY8)
Sequence (Q96NY8 32-349 limits assumed): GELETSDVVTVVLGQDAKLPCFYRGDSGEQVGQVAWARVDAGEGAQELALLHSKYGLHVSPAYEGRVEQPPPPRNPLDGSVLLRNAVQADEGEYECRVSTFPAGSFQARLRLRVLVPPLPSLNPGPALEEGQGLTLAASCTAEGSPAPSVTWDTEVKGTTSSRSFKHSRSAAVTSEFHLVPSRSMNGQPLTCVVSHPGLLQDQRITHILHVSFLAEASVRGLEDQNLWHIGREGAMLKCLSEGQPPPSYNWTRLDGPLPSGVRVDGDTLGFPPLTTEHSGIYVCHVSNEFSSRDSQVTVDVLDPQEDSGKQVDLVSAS
Assay: SPR, human IgG1
ENDPOINT NAME: Kd (nM)
Numeric only. Scale: nM

1. H7L1 (antibody, human IgG1, V domains shown, human IgG1 isotype) VH: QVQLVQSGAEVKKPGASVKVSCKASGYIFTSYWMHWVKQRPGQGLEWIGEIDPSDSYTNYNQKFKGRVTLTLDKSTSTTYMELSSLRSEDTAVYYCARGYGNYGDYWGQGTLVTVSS VL: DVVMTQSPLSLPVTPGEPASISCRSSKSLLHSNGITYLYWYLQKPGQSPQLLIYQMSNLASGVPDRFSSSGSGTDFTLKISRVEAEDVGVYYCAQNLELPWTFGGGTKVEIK: 29.7
2. H7L2 (antibody, human IgG1, V domains shown, human IgG1 isotype) VH: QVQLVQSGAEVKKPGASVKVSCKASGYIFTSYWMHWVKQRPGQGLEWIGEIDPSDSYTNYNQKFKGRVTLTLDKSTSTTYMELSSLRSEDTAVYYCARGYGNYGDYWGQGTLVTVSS VL: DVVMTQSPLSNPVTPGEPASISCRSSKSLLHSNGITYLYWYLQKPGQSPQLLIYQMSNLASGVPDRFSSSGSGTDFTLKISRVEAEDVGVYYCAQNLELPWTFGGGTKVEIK: 39.5

Moving on to another binder below.
Output measured Kd for this item: H3L1 (antibody, human IgG1, V domains shown, human IgG1 isotype) VH: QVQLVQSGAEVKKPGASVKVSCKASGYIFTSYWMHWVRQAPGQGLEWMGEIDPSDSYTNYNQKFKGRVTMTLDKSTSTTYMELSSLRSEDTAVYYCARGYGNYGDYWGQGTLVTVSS VL: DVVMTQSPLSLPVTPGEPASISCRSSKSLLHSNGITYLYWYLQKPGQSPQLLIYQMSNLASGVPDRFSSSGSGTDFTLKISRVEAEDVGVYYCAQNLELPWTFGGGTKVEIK
22
